experiment: AUC (0 to infinity) in guinea pig at 20 mg/kg, administered via intratracheal insufflation by HPLC method; assay type: ADME, organism-based, Cavia porcellus; set-up: time infinity, dose 20 mg/kg, route endotracheal; settings: plasma, inhaled or intranasal
Measured Parameter: AUC(0-inf) (ng·h/mL)
Output spec: scalar in ng·h/mL, unitless text.

Task: So what's the measured AUC(0-inf) for this one? `O=[N+]([O-])c1cn2c(n1)OC[C@@H](OCc1ccc(OC(F)(F)F)cc1)C2`
Output: 14800

* * *

assay: Elimination rate constant in guinea pig at 40 mg/kg, administered via intratracheal insufflation by HPLC method; type: ADME, organism-based, Cavia porcellus; set-up: dose 40 mg/kg, route endotracheal; conditions: in vivo, inhaled or intranasal
Measured Parameter: k el (s⁻¹)
Output spec: scalar in s⁻¹, unitless text.

Task: So what's the measured k el for this one? `O=[N+]([O-])c1cn2c(n1)OC[C@@H](OCc1ccc(OC(F)(F)F)cc1)C2`
Output: 4.72e-05

* * *

assay: Bioavailability (0 to infinity) in guinea pig at 40 mg/kg, administered via intratracheal insufflation by HPLC method; type: ADME, organism-based, Cavia porcellus; conditions: in vivo, inhaled or intranasal
Measured Parameter: bioavailability (%)
Output spec: scalar in %, unitless text.

Task: So what's the measured bioavailability for this one? `O=[N+]([O-])c1cn2c(n1)OC[C@@H](OCc1ccc(OC(F)(F)F)cc1)C2`
Output: 0.63

* * *

assay: Half life in po dosed monkey; assay type: ADME, organism-based, Macaca mulatta; settings: rhesus monkey, in vivo
Measured Parameter: half-life (h)
Output spec: scalar in h, unitless text.

Task: So what's the measured half-life for this one? O=[N+]([O-])c1cn2c(n1)OC[C@@H](OCc1ccc(OC(F)(F)F)cc1)C2 [PRETOMANID]
Output: 2

* * *

experiment: Tmax in guinea pig at 40 mg/kg, po by HPLC method; type: ADME, organism-based, Cavia porcellus; set-up: dose 40 mg/kg, route oral; conditions: in vivo
Measured Parameter: Tmax
Remember to quote the unit after the number.

Task: So what's the measured Tmax for this one? `O=[N+]([O-])c1cn2c(n1)OC[C@@H](OCc1ccc(OC(F)(F)F)cc1)C2`
Output: 4 h

* * *

assay: Half life in guinea pig at 20 mg/kg, iv by HPLC method; type: ADME, organism-based, Cavia porcellus; set-up: dose 20 mg/kg, route intravenous; conditions: in vivo
Measured Parameter: half-life (h)
Output spec: scalar in h, unitless text.

Task: So what's the measured half-life for this one? `O=[N+]([O-])c1cn2c(n1)OC[C@@H](OCc1ccc(OC(F)(F)F)cc1)C2`
Output: 1.91

* * *

assay: Tmax in po dosed rat; format: ADME, organism-based; conditions: in vivo
Measured Parameter: Tmax (h)
Output spec: scalar in h, unitless text.

Task: So what's the measured Tmax for this one? O=[N+]([O-])c1cn2c(n1)OC[C@@H](OCc1ccc(OC(F)(F)F)cc1)C2 [PRETOMANID]
Output: 6

* * *

assay: Tmax in guinea pig at 40 mg/kg, administered via intratracheal insufflation by HPLC method; assay type: ADME, organism-based, Cavia porcellus; design: dose 40 mg/kg, route endotracheal; conditions: in vivo, inhaled or intranasal
Measured Parameter: Tmax (h)
Output spec: scalar in h, unitless text.

Task: So what's the measured Tmax for this one? `O=[N+]([O-])c1cn2c(n1)OC[C@@H](OCc1ccc(OC(F)(F)F)cc1)C2`
Output: 3.25
